# IC50 per record follows
- measuredOn: imidazoline-2 binding sites (I2BS)
- assayText: ^3H-BU99008 competition binding assay with unlabelled ligands in temporal cortex brain homogenate
- Set-up: species or system human
- experimentalSetup: AD temporal cortex, vs 1 nM ^3H-BU99008, two-site fit; read-out: IC50_1
The reply should contain only the number, in nM.

INSERT INTO results (smilesentry, endpointname, measurednumber) VALUES
  ('Cn1c(C2=NCCN2)cc2ccccc21', 'IC50', 1.43);

Lab note: next molecule to report on.
**Query** Identify the measured IC50 of Cl.c1ccc2oc(C3=NCCN3)cc2c1 for imidazoline-2 binding sites (I2BS).
**Result** 0.041

----------
- measuredOn: imidazoline-2 binding sites (I2BS)
- assayText: ^3H-BU99008 competition binding with unlabelled BU99008 in the presence of MAO B inhibitors
- Parameters: species or system human
- experimentalSetup: AD (85 years), unlabelled BU99008 alone, one-site; read-out: IC50
endpointName: IC50 (nM)
The reply should contain only the number, in nM.

**Query** What value of IC50 has been reported for the following compound? Cn1c(C2=NCCN2)cc2ccccc21 [BU99008]
**Result** 1.73

----------
# IC50 per record follows
- measuredOn: imidazoline-2 binding sites (I2BS)
- assayText: ^3H-BU99008 competition binding assay with unlabelled ligands in temporal cortex brain homogenate
- Set-up: species or system human
- experimentalSetup: CN temporal cortex, vs 1 nM ^3H-BU99008, two-site fit; read-out: IC50_1

**Query** What value of IC50 has been reported for the following compound? Cl.c1ccc2nc(C3=NCCN3)ccc2c1
**Result** 0.026 nM

**Query** One more compound: Cl.c1ccc2oc(C3=NCCN3)cc2c1
**Result** 0.34 nM

----------
- measuredOn: imidazoline-2 binding sites (I2BS)
- assayText: ^3H-BU99008 competition binding assay with unlabelled ligands in temporal cortex brain homogenate
- Parameters: species or system human
- experimentalSetup: CN temporal cortex, vs 1 nM ^3H-BU99008, two-site fit; read-out: IC50_2
- Method: After 1 h incubation a similar protocol as saturation binding assay was done and the binding was quantified using the scintillation counter. The competition binding data was fitted and analysed using non-linear regression competitive-binding function of GraphPad Prism 8.3 software to determine IC50 (half-maximal inhibitory concentration) values.
endpointName: pIC50
Scale for pIC50: -log10 of concentration given in mol/L; no unit attached.

In the examples that follow, each entry is paired with its recorded pIC50.
INSERT INTO measurements (smilesentry, measurednumber) VALUES
  ('Cl.c1ccc2nc(C3=NCCN3)ccc2c1', 6.73),
  ('Cn1c(C2=NCCN2)cc2ccccc21', 8.61);

Lab note: next compound to report on.
**Query** What value of pIC50 has been reported for the following compound? Cl.c1ccc2oc(C3=NCCN3)cc2c1
**Result** 6.83
